Provenance of the data: patent US20250127759A1

experiment: Phase 1/2a study, plasma pharmacokinetics of PF-07104091; type: in vivo, human; conditions: human, plasma, po, 75 mg, Cycle 1 Day 1, single oral dose; 75 mg BID (1B), with palbociclib and fulvestrant; geometric mean (CV %); read-out: Cmax

smiles code	units text	Cmax
COCc1cc(C(=O)Nc2cc([C@H]3CC[C@@H](OC(=O)NC(C)C)C3)[nH]n2)n(C)n1	ng/mL	694

----------
experiment: Phase 1/2a study, plasma pharmacokinetics of PF-07104091; type: in vivo, human; settings: human, plasma, po, 225 mg, Cycle 1 Day 1, single oral dose; 225 mg BID monotherapy; geometric mean (CV %); read-out: Cmax

smiles code	Cmax [ng/mL]
COCc1cc(C(=O)Nc2cc([C@H]3CC[C@@H](OC(=O)NC(C)C)C3)[nH]n2)n(C)n1	1390

----------
Assay: Phase 1/2a study, plasma pharmacokinetics of PF-07104091
Assay type: in vivo, human
Settings: human, plasma, po, 150 mg, Cycle 1 Day 1, single oral dose; 150 mg BID monotherapy; n = 1; read-out: t1/2 (converted)
Text: Blood samples will be collected for measurement of plasma concentrations of PF-07104091 as specified in the protocol. Samples will be used to evaluate the PK of PF-07104091. Samples collected for analyses of PF-07104091 plasma concentration may also be used to evaluate safety or efficacy aspects related to concerns arising during or after the study, for metabolite identification and/or evaluation of the bioanalytical method, or for other internal exploratory purposes. […]
observation type: half-life (h)

compound	units text	measured
COCc1cc(C(=O)Nc2cc([C@H]3CC[C@@H](OC(=O)NC(C)C)C3)[nH]n2)n(C)n1 [PF-07104091]	h	2.8

----------
test: Phase 1/2a study, plasma pharmacokinetics of PF-07104091; type: in vivo, human; settings: human, plasma, po, 75 mg, Cycle 1 Day 15, repeated BID oral; 75 mg BID monotherapy; individual values

molecule	AUC(0-t) (ng·h/mL)
COCc1cc(C(=O)Nc2cc([C@H]3CC[C@@H](OC(=O)NC(C)C)C3)[nH]n2)n(C)n1 [PF-07104091]	3580

----------
assay: Phase 1/2a study, plasma pharmacokinetics of PF-07104091; assay type: in vivo, human; settings: human, plasma, po, 75 mg, Cycle 1 Day 1, single oral dose; 75 mg BID (1C), with palbociclib and letrozole; geometric mean (CV %)

smiles code	AUC(0-t) / ng·h/mL
COCc1cc(C(=O)Nc2cc([C@H]3CC[C@@H](OC(=O)NC(C)C)C3)[nH]n2)n(C)n1	2460

----------
experiment: Phase 1/2a study, plasma pharmacokinetics of PF-07104091; assay type: in vivo, human; settings: human, plasma, po, 75 mg, Cycle 1 Day 1, single oral dose; 75 mg BID monotherapy; arithmetic mean ± SD; read-out: t1/2 (converted)
observation type: half-life (h)

molecule	observation type	units text	measured
COCc1cc(C(=O)Nc2cc([C@H]3CC[C@@H](OC(=O)NC(C)C)C3)[nH]n2)n(C)n1 [PF-07104091]	half-life	h	2.4

----------
assay: Phase 1/2a study, plasma pharmacokinetics of PF-07104091; assay type: in vivo, human; conditions: human, plasma, po, 300 mg, Cycle 1 Day 1, single oral dose; 300 mg BID monotherapy; geometric mean (CV %); read-out: Cmax

smiles code	Cmax / ng/mL
COCc1cc(C(=O)Nc2cc([C@H]3CC[C@@H](OC(=O)NC(C)C)C3)[nH]n2)n(C)n1	1820

----------
Test: Phase 1/2a study, plasma pharmacokinetics of PF-07104091
Type: in vivo, human
Conditions: human, plasma, po, 75 mg, Cycle 1 Day 15, repeated BID oral; 75 mg BID (1B), with palbociclib and fulvestrant; median (range); read-out: Tmax
Text: Blood samples will be collected for measurement of plasma concentrations of PF-07104091 as specified in the protocol. Samples will be used to evaluate the PK of PF-07104091. Samples collected for analyses of PF-07104091 plasma concentration may also be used to evaluate safety or efficacy aspects related to concerns arising during or after the study, for metabolite identification and/or evaluation of the bioanalytical method, or for other internal exploratory purposes. […]

compound	Tmax, h
COCc1cc(C(=O)Nc2cc([C@H]3CC[C@@H](OC(=O)NC(C)C)C3)[nH]n2)n(C)n1 [PF-07104091]	1.2

----------
Experiment: Phase 1/2a study, plasma pharmacokinetics of PF-07104091
Format: in vivo, human
Details: human, plasma, po, 150 mg, Cycle 1 Day 15, repeated BID oral; 150 mg BID monotherapy; geometric mean (CV %); read-out: Cmax
Text: Blood samples will be collected for measurement of plasma concentrations of PF-07104091 as specified in the protocol. Samples will be used to evaluate the PK of PF-07104091. Samples collected for analyses of PF-07104091 plasma concentration may also be used to evaluate safety or efficacy aspects related to concerns arising during or after the study, for metabolite identification and/or evaluation of the bioanalytical method, or for other internal exploratory purposes. […]

smiles code	Cmax
COCc1cc(C(=O)Nc2cc([C@H]3CC[C@@H](OC(=O)NC(C)C)C3)[nH]n2)n(C)n1	1320 ng/mL

----------
experiment: Phase 1/2a study, plasma pharmacokinetics of PF-07104091; type: in vivo, human; conditions: human, plasma, po, 300 mg, Cycle 1 Day 15, repeated BID oral; 300 mg BID monotherapy; arithmetic mean ± SD; read-out: t1/2 (converted)

smiles code	half-life
COCc1cc(C(=O)Nc2cc([C@H]3CC[C@@H](OC(=O)NC(C)C)C3)[nH]n2)n(C)n1	168 min

----------
experiment: Phase 1/2a study, plasma pharmacokinetics of PF-07104091; format: in vivo, human; conditions: human, plasma, po, 500 mg, Cycle 1 Day 1, single oral dose; 500 mg BID monotherapy; median (range); read-out: Tmax
observation type: Tmax (h)

smiles code	measured
COCc1cc(C(=O)Nc2cc([C@H]3CC[C@@H](OC(=O)NC(C)C)C3)[nH]n2)n(C)n1	5.3

----------
test: Phase 1/2a study, plasma pharmacokinetics of PF-07104091; assay type: in vivo, human; conditions: human, plasma, po, 75 mg BID to 500 mg BID; read-out: average half-life (converted)
observation type: half-life

smiles code	observation type	measured
COCc1cc(C(=O)Nc2cc([C@H]3CC[C@@H](OC(=O)NC(C)C)C3)[nH]n2)n(C)n1	half-life	~2 h

----------
test: Phase 1/2a study, plasma pharmacokinetics of PF-07104091; format: in vivo, human; conditions: human, plasma, po, 375 mg, Cycle 1 Day 1, single oral dose; 375 mg BID monotherapy; individual values

smiles code	AUC(0-t)
COCc1cc(C(=O)Nc2cc([C@H]3CC[C@@H](OC(=O)NC(C)C)C3)[nH]n2)n(C)n1	11600 ng·h/mL

----------
assay: Phase 1/2a study, plasma pharmacokinetics of PF-07104091; type: in vivo, human; conditions: human, plasma, po, 150 mg, Cycle 1 Day 1, single oral dose; 150 mg BID monotherapy; median (range); read-out: Tmax

smiles code	Tmax [h]
COCc1cc(C(=O)Nc2cc([C@H]3CC[C@@H](OC(=O)NC(C)C)C3)[nH]n2)n(C)n1	2

----------
assay: Phase 1/2a study, plasma pharmacokinetics of PF-07104091; format: in vivo, human; conditions: human, plasma, po, 225 mg, Cycle 1 Day 15, repeated BID oral; 225 mg BID monotherapy; geometric mean (CV %)

compound	units text	AUC(0-t)
COCc1cc(C(=O)Nc2cc([C@H]3CC[C@@H](OC(=O)NC(C)C)C3)[nH]n2)n(C)n1 [PF-07104091]	ng·h/mL	10700
